- Test system: NLK
- Assay setup: concentration: 1 μM, replicates: in singlicate; n = 1;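 further: KINOMEscan kinase panel screen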
Each record gets a class by %Inh: low end = under 1%, middle = from 1% up to 10%, high end = 10% and over

Illustrative cases are given below, each with its answer.
INSERT INTO results (smiles, label_class) VALUES
  ('COc1cccc(-c2nc(-c3ccccc3)[nH]c2-c2ccncc2)c1', 'high end'),
  ('CC(C)(C)c1ccc(C(=O)Nc2cn3cc(-n4ccnc4)ccc3n2)cc1', 'low end'),
  ('CN(C)CCNS(=O)(=O)c1ccc(-c2ccnc3[nH]ccc23)cc1', 'high end'),
  ('CS(=O)(=O)c1cccc(CNc2nc(Nc3ccc4c(c3)CCC(=O)N4)ncc2C(F)(F)F)c1', 'low end'),
  ('COc1ccc(NC(=O)c2ccoc2)cc1-c1ccc(C(=O)NCC2CC2)cc1', 'high end');

Problem: For this compound, which bin applies? O=C(Nc1n[nH]c2cc(-c3cccs3)ccc12)C1CC1
Solution: low end

Problem: For this compound, which bin applies? COc1cccc(NC(=O)NCCNc2ccnc(Nc3ccc(F)cc3)n2)c1
Solution: middle

Problem: For this compound, which bin applies? Cl.O=C(Nc1ccc(Oc2ccc3[nH]c(NC(=O)c4ccco4)nc3c2)cc1)Nc1cc(C(F)(F)F)ccc1F
Solution: middle

Problem: For this compound, which bin applies? CNc1nccc(-c2ccc3c(N)n[nH]c3c2)n1
Solution: high end

Problem: For this compound, which bin applies? Cc1ccc(NC(=O)c2cccc(N3CCCCC3)c2)cc1-c1ccc(C(=O)NCC2CC2)cc1
Solution: middle

Problem: For this compound, which bin applies? N#CC1(c2cccc(C(=O)Nc3cccc(Oc4ccc5nc(NC(=O)C6CC6)sc5n4)c3)c2)CC1
Solution: low end

Problem: For this compound, which bin applies? c1ccc(Oc2ccc(Nc3ccnc4cc(-c5ccc(CN6CCCCC6)o5)ccc34)cc2)nc1
Solution: high end

----------
The reader will find reported %Inh values listed item by item below.
- System: GRK1
- Assay setup: concentration: 1 μM, replicates: in singlicate; n = 1
Give your result in % as a bare value.

INSERT INTO assay_data (compound, measurement_label, measure_unit, reported) VALUES
  ('CN(C)CCNS(=O)(=O)c1ccc(-c2ccnc3[nH]ccc23)cc1 [GSK977620]', '%Inh', '%', 71),
  ('O=C1NC(=O)C(c2ccccc2Cl)=C1Nc1cccc(Cl)c1 [SB-342409]', '%Inh', '%', 13),
  ('Cn1cc(-c2ccc3c(c2)CCN3C(=O)Cc2cc(F)cc(C(F)(F)F)c2)c2c(N)ncnc21 [GSK2635225]', '%Inh', '%', 0),
  ('c1ccc(Oc2ccc(Nc3ccnc4cc(-c5ccc(CN6CCCCC6)o5)ccc34)cc2)nc1 [GW567143]', '%Inh', '%', 0),
  ('CNc1nccc(-c2ccc3c(N)n[nH]c3c2)n1 [GSK2206003]', '%Inh', '%', 0);

Problem: Identify measured %Inh associated with CN(C)CCOc1ccc(-c2cc(-c3ccc(Cl)c(O)c3)c(-c3ccncc3)[nH]2)cc1.Cl.Cl [SB-684387]
Solution: 43

Problem: Identify measured %Inh associated with COc1ccc(C)c(Nc2ccnc(Nc3ccc(-c4cnc[nH]4)cc3)n2)c1.Cl [GW784041]
Solution: 0

Problem: Identify measured %Inh associated with Nc1ncnc2scc(-c3ccc(NC(=O)Cc4cc(F)ccc4F)cc3)c12.O=C(O)C(F)(F)F [SB-731254-M]
Solution: 24

Problem: Identify measured %Inh associated with Cc1ccc(C)c(NC(=O)Nc2ccc(C)c(-c3ccc(C(=O)Nc4ccncc4)cc3)c2)c1 [GSK1398473]
Solution: 0

Problem: Identify measured %Inh associated with CN1CCN(Cc2ccc(NC(=O)Nc3ccc(N(C)c4ccnc(Nc5ccc(CS(C)(=O)=O)cc5)n4)cc3)cc2)CC1.Cl [GW827654]
Solution: 9
